Measured Kd accompanies every entry in the list below.
# TESTED ON: ShhN-EGFP (Homo sapiens, UniProt Q15465)
# Construct: PET-28(a)-human ShhN (Shh 24-197) plasmid; His (N); made in house; host or cells: Escherichia coli Rosetta (DE3)
# Sequence (Q15465 24-197): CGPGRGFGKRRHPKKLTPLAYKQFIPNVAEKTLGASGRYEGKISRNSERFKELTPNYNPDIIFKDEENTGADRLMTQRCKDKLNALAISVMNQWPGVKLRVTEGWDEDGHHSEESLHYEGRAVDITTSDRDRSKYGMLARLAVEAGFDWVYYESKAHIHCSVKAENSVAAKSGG
# ASSAY EXPLANATION: Microscale thermophoresis (MST) binding
# MEASUREMENT CONTEXT: MST, ShhN-EGFP; mean±SD for three independent experiments; read-out: Kd
Report the value in µM with no unit label.

Reference set, count: 3
>>> measured_value("Cc1cc(C)c(CSC2=NCCN2)c(C)c1CSC1=NCCN1")
7
>>> measured_value("Nc1nc(NCCCN2CCOCC2)nc(NCc2ccco2)c1[N+](=O)[O-]")
6.2
>>> measured_value("c1ccc(COC(CNC2CCCCC2)CNC2CCCCC2)cc1")
3.1

Below: the item to evaluate.
# input Given the entry CCOC(=O)c1c(C)n(-c2ccc(C)cc2)c2ccc(OCC(O)CNCCCO)cc12 (stereo not shown) , report its measured Kd.
# output 5.8

###

# System: Hh signaling pathway (8 × Gli-binding site luciferase reporter, Shh-LIGHT2 cells)
# ASSAY EXPLANATION: Dual-luciferase reporter assay in Shh-LIGHT2 cells
# Format: cell-based
# MEASUREMENT CONTEXT: 5 μM, read-out: Inhibition rate for cell assay at 5 μM
MEASURED ATTRIBUTE: inhibition at 5 µM (%)
Return type: number; implicit unit %.

Past entries and their recorded results:
>>> measured_value("Nc1nc(Nc2cccc(F)c2)nc(NCc2ccco2)c1[N+](=O)[O-] [Compound 7_2d8]")
101
>>> measured_value("Nc1nc(Nc2ccccc2F)nc(NCc2ccco2)c1[N+](=O)[O-] [Compound 7_2d9]")
94
>>> measured_value("Nc1nc(Nc2ccc(Cl)cc2)nc(NCc2ccco2)c1[N+](=O)[O-] [Compound 7_2d7]")
102
>>> measured_value("Nc1nc(NCC2CCCO2)nc(NCc2ccco2)c1[N+](=O)[O-] (stereo not drawn) [Compound 7_2d2]")
94
>>> measured_value("CCOc1ccc(Nc2nc(N)c([N+](=O)[O-])c(NCc3ccco3)n2)cc1 [Compound 7_2d6]")
97
>>> measured_value("c1ccc(Nc2nc(NC3CCCCCC3)nc3c2cnn3-c2ccccc2)cc1 [Compound 7_3d2]")
93
>>> measured_value("CCN(CC)CCNc1nc(Nc2cccc(Cl)c2)c2cnn(-c3ccccc3)c2n1 [Compound 7_3d3]")
107
>>> measured_value("CCN1CCN(c2nc(Nc3cccc(Cl)c3)c3cnn(-c4ccccc4)c3n2)CC1 [Compound 7_3d4]")
105

# input What measured inhibition at 5 µM goes with Nc1nc(NCCN2CCOCC2)nc(NCc2ccco2)c1[N+](=O)[O-] [Compound 7_2d3] ?
# output 68

###

# maps each entry to its pKd
# TESTED ON: ShhN-EGFP (Homo sapiens, UniProt Q15465)
# Construct: PET-28(a)-human ShhN (Shh 24-197) plasmid; His (N); made in house; host or cells: Escherichia coli Rosetta (DE3)
# ASSAY EXPLANATION: Microscale thermophoresis (MST) binding
# log scale: pKd equals minus log10 of the concentration in mol/L

>>> measured_value("OCCCNCC(O)Cn1c2ccc(Br)cc2c2cc(Br)ccc21 (centres unmarked)")
5.35

Now consider a different compound.
# input Could you share which pKd value was measured for OC(CNCc1ccc2c(c1)OCO2)COc1ccc(-c2csnn2)cc1 (centres unmarked) ?
# output 5.08

Reference source: paper PMC7309560
